Reference for the values: paper PMC4906375

# measurementDescription: Cytotoxicity, Alamar Blue (resazurin) assay
# Assay type: cell-based, human
# appliedConditions: human, HEK293 cells, HEK293, 1% FBS; read-out: cytotoxicity HEK293 1% FBS
experimentalReadout: CC50 at 24 h
# number then unit; no other words

*Q* # query: CC50 at 24 h of entry CC(C)C[C@H](NC(=O)[C@H](CCCNC(=N)N)NC(=O)CNC(=O)CNC(=O)[C@@H](N)CCCNC(=N)N)C(=O)N[C@H]1CSSC[C@@H](C(=O)N[C@H](C(=O)NCC(=O)N[C@@H](CCCNC(=N)N)C(N)=O)C(C)C)NC(=O)[C@H](C(C)C)NC(=O)[C@@H]2CSSC[C@H](NC(=O)[C@H](Cc3ccc(O)cc3)NC1=O)C(=O)N[C@@H](CCCNC(=N)N)C(=O)N[C@@H](CCCNC(=N)N)C(=O)N[C@@H](CCCNC(=N)N)C(=O)N[C@@H](Cc1ccccc1)C(=O)N2 [protegrin-1]
*A* 19.6 µg/mL
